Cited source: paper doi:10.1101/327320

# Assayed Target: T1, Hrq1 (Saccharomyces cerevisiae, UniProt Q05549 1-1077)
# T1 sequence: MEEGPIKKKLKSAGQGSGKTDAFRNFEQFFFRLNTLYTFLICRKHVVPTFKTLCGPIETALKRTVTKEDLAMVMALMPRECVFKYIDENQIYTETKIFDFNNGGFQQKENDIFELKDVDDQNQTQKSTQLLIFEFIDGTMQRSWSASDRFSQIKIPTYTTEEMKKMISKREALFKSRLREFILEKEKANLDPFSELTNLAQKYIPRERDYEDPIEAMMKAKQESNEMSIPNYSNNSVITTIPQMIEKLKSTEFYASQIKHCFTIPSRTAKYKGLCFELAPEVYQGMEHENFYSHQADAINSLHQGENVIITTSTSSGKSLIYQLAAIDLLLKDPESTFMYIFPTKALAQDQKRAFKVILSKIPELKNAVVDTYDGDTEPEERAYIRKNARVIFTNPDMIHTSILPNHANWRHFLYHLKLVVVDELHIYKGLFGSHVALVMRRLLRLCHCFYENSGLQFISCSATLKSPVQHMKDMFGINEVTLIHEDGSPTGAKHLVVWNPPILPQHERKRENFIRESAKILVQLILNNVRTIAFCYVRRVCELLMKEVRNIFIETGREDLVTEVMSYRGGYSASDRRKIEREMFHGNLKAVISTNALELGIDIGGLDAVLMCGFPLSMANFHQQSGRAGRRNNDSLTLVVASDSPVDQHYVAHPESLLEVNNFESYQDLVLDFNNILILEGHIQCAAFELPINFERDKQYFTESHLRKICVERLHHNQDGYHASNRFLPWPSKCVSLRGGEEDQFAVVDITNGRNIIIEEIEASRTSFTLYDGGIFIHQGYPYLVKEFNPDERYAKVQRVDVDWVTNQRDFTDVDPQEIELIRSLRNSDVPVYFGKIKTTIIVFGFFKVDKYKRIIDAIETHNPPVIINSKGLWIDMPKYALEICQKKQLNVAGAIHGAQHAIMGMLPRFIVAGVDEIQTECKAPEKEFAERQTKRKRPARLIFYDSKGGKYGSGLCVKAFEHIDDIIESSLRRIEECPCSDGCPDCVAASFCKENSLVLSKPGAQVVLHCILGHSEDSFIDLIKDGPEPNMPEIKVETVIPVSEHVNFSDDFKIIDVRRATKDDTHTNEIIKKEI
# Test: EMSA
Listed here: items and their measured Kd.

[in] Query (binder): TTTTTTTTTTTTTTTTTTTTTTTTT (ssDNA, 3'-terminal T25 is inverted dT (3'-3' linkage, two 5' ends, no free 3' end)) [MB1429 poly(dT) 25 nt with 3' inverted dT] ; field requested: Kd
[out] ~35 nM

[in] Let us now turn to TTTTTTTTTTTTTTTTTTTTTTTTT (ssDNA) [MB463 poly(dT) 25 nt]
[out] ~35 nM

---
[in] # query: Kd of entry CGCCATGCTGATCCGTGTGGTGTGTGTGGG (ssDNA) [Tel30]
[out] 16.1 nM
